These measurements were taken from ChEMBL document CHEMBL1201862.

System: SF-295
assayExplanation: NCI tumour cell line growth inhibition, 48 h
Calls of active or inactive are those of the source. Cut-off read from the data, not from the text of the source: active = GI50 up to about 1.1 µM and inactive = higher.
parameterMeasured: GI50

Requested read-out: GI50. Entry: C=CCCCCCCCCCP(=O)(c1ccccc1)c1ccc2c(c1)OCCOCCOCCOCCO2 (stereo unspecified)
15.2 µM (inactive)

# query: GI50 of entry Cc1ccc(C)c(NC(=O)c2cc(-c3ccc([N+](=O)[O-])cc3)nc(N)n2)c1
> 100 µM (inactive)

Bench note: what GI50 did Clc1ccc(-c2nn3c(COc4ccc(OCc5nnc6sc(-c7ccc(Cl)cc7)nn56)c(Cl)c4)nnc3s2)cc1 show?
26.5 µM (inactive)

What GI50 value was documented for this molecule, CC(C)C(NC(=O)C(Cc1ccccc1)NC(=O)[C@H]1CCC[C@H]1NC(=O)C(Cc1ccc(OC(C)(C)C)cc1)NC(=O)OC(C)(C)C)C(N)=O (stereo partly specified) ?
17.3 µM (inactive)

Recorded GI50 for CNC(C#N)c1ccc(OC)cc1 (stereo unspecified) , please?
> 100 µM (inactive)

So what's the measured GI50 for this one? CCN(CC)CCN1CCc2c([nH]c3ccccc23)C1c1cccnc1 (stereo unspecified)
> 100 µM (inactive)

Look up GI50: CN(C(=O)c1cc2c(s1)sc1c(=O)n(C)c3ccccc3c12)c1ccccc1
2.25 µM (inactive)

Would you mind telling me what GI50 value was observed for COc1cc(/C=C/C(=N\NC(N)=S)c2sc(NNC(C)=O)nc2C)ccc1O ?
> 100 µM (inactive)

Look up GI50 for this molecule: O=C1CC(=O)NC(NN2C(=O)/C(=C/c3ccc(Cl)cc3)N=C2c2ccccc2)=N1
14.5 µM (inactive)

Name the recorded GI50 for C/C(=N\NC(N)=O)C(CN1CCCCC1)C(c1ccccc1)c1c(O)c2ccccc2oc1=O (stereo unspecified) .
> 100 µM (inactive)

For the molecule shown here, N=c1c2ccccc2nc2oc3cc([N+](=O)[O-])ccc3n12 , give the reported GI50.
19.3 µM (inactive)

Entry CC1(C=O)CCC23COC4(CCC5C6(C)CCC(OC7OCC(OC8OC(CO)C(O)C(OC9OC(CO)C(O)C(O)C9O)C8OC8OCC(O)C(O)C8O)C(O)C7OC7OC(CO)C(O)C(O)C7O)C(C)(C)C6CCC5(C)C4(C)CC2O)C3C1 (stereo unspecified) : reported GI50 = ?
0.908 µM (active)

Return reported GI50; argument: CCCCCCNC(=O)CCN(C(=O)O)S(=O)(=O)c1ccc(NC(=O)c2ccccc2)cc1
> 100 µM (inactive)

Give the measured GI50 of N#[N+]c1cc2c(cc1Br)-c1ccccc1C2 .
> 100 µM (inactive)

Param item = COCOCCC#CCO ; retrieve measured GI50.
> 100 µM (inactive)

Reported GI50 for CCN(CC)CCN(C)c1ccc(CO)c2c1c(=O)c1ccccc1[s+]2[O-] (stereo unspecified) : what is it?
13.6 µM (inactive)

Using the record for Cc1c(Cl)cccc1NC(=O)C(=O)C1C(=O)CC(C)(C)CC1=O , report its GI50.
> 100 µM (inactive)

Would you mind telling me what GI50 value was observed for O=c1[nH]c(=S)[nH]c(-c2ccccc2)c1Cc1c(O)ccc2ccccc12 [CAMBINOL] ?
52 µM (inactive)

Reported GI50 for O=C(O)COc1cc(-c2ccccc2)nc2cc(F)ccc12 : what is it?
> 100 µM (inactive)

Recorded GI50 for O=C(CCc1ccc(O)c(O)c1)NCCc1cc(O)cc(OCc2ccccc2)c1 , please?
46.7 µM (inactive)

Quick check: GI50 of O=C(NCCO)c1ccc([N+](=O)[O-])cc1 ?
> 100 µM (inactive)
